- Test system: IAV(H1N1)pdm09 isolate I1
- measurement description: microbe, parasite or virus in culture
- Type: cell-based, influenza A virus
- protocol conditions: Influenza A virus, H1N1
pIC50: −log10 of the molar value.
Collected pIC50 values appear next to each entry.
experimental readout: pIC50

O=C(O[C@@H]1Cc2c(O)cc(O)cc2O[C@@H]1c1ccc(O)c(O)c1)c1cc(O)c(O)c(O)c1 [compound 5, epicatechin-3-O-gallate]: ≥ 3.59
Oc1cccc(O)c1O [compound 18, pyrogallol, reference compound]: ≥ 3.62
Oc1cc(O)c2c(c1)O[C@H](c1cc(O)c(O)c(O)c1)[C@@H](O)C2 [compound 3, gallocatechin]: ≥ 3.81
O=c1oc2c(O)c(O)cc3c(=O)oc4c(O)c(O)cc1c4c23 [compound 15, ellagic acid, reference compound]: < 3.70
Oc1cc(O)c2c(c1)O[C@H](c1ccc(O)c(O)c1)[C@H](O)[C@H]2c1c(O)cc2c(c1O)C[C@@H](O)[C@@H](c1ccc(O)c(O)c1)O2 [compound 9, epicatechin-(4β→6)-epicatechin]: ≥ 3.79
O=C(OC[C@H]1O[C@@H](OC(=O)c2cc(O)c(O)c(O)c2)[C@H](OC(=O)c2cc(O)c(O)c(O)c2)[C@@H](OC(=O)c2cc(O)c(O)c(O)c2)[C@@H]1OC(=O)c1cc(O)c(O)c(O)c1)c1cc(O)c(O)c(O)c1 [compound 12, 1,2,3,4,6-penta-O-galloyl-β-D-glucose, reference compound]: 4.66
Oc1cc(O)c2c(c1)O[C@H](c1ccc(O)c(O)c1)[C@H](O)[C@H]2c1c(O)cc(O)c2c1O[C@H](c1ccc(O)c(O)c1)[C@H](O)[C@H]2c1c(O)cc(O)c2c1O[C@H](c1ccc(O)c(O)c1)[C@H](O)C2 [compound 10]: 3.91
Oc1cc(O)c2c(c1)O[C@H](c1ccc(O)c(O)c1)[C@@H](O)C2 [compound 1, (+)-catechin monohydrate]: < 3.70
O=C(O)c1cc(O)c(O)c(O)c1 [compound 17, gallic acid monohydrate, reference compound]: < 3.70
O=C(/C=C/c1ccc(O)c(O)c1)O[C@H](Cc1ccc(O)c(O)c1)C(=O)O [compound 16, rosmarinic acid, reference compound]: < 3.70
Oc1cc(O)c2c(c1)O[C@H](c1ccc(O)c(O)c1)[C@H](O)[C@H]2c1c(O)cc(O)c2c1O[C@H](c1ccc(O)c(O)c1)[C@H](O)[C@H]2c1c(O)cc(O)c2c1O[C@H](c1ccc(O)c(O)c1)[C@H](O)[C@H]2c1c(O)cc(O)c2c1O[C@H](c1ccc(O)c(O)c1)[C@H](O)C2 [compound 11]: ≥ 3.65

----------
- Tested on: IAV(H1N1)pdm09 isolate I1
- measurement description: microbe, parasite or virus in culture
- Format: cell-based, influenza A virus
- protocol conditions: Influenza A virus, H1N1, 48 h; 2 µM; read-out: anti-IAV activity
Parameter: inhibition at 2 µM. Scope: all listed entries.
experimental readout: inhibition at 2 µM (%)

Oc1cc(O)c2c(c1)O[C@H](c1ccc(O)c(O)c1)[C@@H](O)C2 [compound 1, (+)-catechin monohydrate]: 0
Oc1cc(O)c2c(c1)O[C@H](c1ccc(O)c(O)c1)[C@H](O)C2 [compound 2, (−)-epicatechin]: 0
Oc1cc(O)c2c(c1)O[C@H](c1ccc(O)c(O)c1)[C@H](O)[C@H]2c1c(O)cc(O)c2c1O[C@H](c1ccc(O)c(O)c1)[C@H](O)C2 [compound 7, epicatechin-(4β→8)-epicatechin]: 0
Oc1cc(O)c2c(c1)O[C@H](c1cc(O)c(O)c(O)c1)[C@@H](O)C2: 0
